# measured-target: T1, mouse PTH1R overexpressed on CHO cells (mouse, UniProt P41593 27-591)
# T1 sequence (looked up): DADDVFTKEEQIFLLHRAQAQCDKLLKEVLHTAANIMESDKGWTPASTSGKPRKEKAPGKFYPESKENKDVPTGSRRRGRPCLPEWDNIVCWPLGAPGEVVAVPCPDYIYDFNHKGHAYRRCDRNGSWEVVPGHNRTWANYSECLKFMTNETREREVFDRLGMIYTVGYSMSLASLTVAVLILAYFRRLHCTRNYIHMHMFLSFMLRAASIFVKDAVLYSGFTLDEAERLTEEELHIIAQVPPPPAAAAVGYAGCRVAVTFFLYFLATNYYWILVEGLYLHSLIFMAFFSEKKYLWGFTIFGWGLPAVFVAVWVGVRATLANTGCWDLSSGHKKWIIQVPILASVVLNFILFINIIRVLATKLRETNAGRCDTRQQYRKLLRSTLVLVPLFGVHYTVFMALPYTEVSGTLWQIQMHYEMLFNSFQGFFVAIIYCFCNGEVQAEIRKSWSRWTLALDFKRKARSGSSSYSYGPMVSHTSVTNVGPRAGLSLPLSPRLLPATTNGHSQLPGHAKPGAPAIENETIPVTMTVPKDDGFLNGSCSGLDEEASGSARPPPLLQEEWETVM
# procedure-summary: cell-based or functional assay
measured-endpoint: EC50 of PTH(1-34), cAMP assay, with 267 nM IgG (nM)
Give the number; nM is assumed, so skip it.

Answered examples (2):
{"binder": "XPA.85.340 (antibody, V domains shown, Light-chain-shuffled variant of XPA.85.017) VH: EVQLVETGGGVVRPGGSLRLSCAASGFTFSSSAMSWVRQTPGKELQWVSAITPGGEGTYYADVVKGRFTISRDNSKDTLYLQMDSLRAEDTAVYYCARDLYGSYGDAFDIWGQGTLVTVSS VL: SYVLTQPPSVSVAPGQTASITCSGDNLGEKFVSWYQQKAGQSPVLVIFEDNKRPSGIPERFAGSNSGNRATLTIRGTQAEDEADYYCQAWDSSWVFGGGTQLTVL", "readout-number": 0.614}
{"binder": "XPA.85.337 (antibody, V domains shown, Light-chain-shuffled variant of XPA.85.017) VH: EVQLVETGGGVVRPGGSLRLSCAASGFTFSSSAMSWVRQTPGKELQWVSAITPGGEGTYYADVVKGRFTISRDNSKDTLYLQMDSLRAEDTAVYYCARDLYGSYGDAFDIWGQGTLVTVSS VL: SYVLTQPPSVSVAPGQTATITCSGDDFGDKYVSWYQQKPGQSPLLVIFQDNERPSGIPERFSGSNSGNTATLTISGTQAMDEADYYCQAWDSNWVFGGGTKVTVL", "readout-number": 0.219}

We next turn to a different binder, shown below.
[in] Query (binder): XPA.85.287 (antibody, V domains shown, also called Ab287) VH: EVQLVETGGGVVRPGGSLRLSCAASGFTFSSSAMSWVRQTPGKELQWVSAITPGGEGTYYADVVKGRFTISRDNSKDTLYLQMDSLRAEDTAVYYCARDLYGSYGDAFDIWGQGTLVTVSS VL: SYVLTQPPSVSVAPGQTARITCSGDKLGDRYVSWYQQKPGQSPVLVMFEDTGRPAGIPERFSGSNSGNTATLTISGTQAEDEADYYCQAWGTSWVFGGGTQLTVL ; field requested: EC50 of PTH(1-34), cAMP assay, with 267 nM IgG
[out] 13.6

Entry source: patent US20200317817A1
